Hi there, I'd appreciate the recorded melting point for every entry that follows.
Structures can show the parent of a compound that is named as a salt.

// input: 7 compounds below; output: melting point for each
1. O=S(=O)(c1ccccc1)c1c[nH]c2ccc(CCNC3CC3)cc12 (as salt: hydrochloride) [Example 4]
2. CC(C)(C)CNCCc1cccc2[nH]cc(S(=O)(=O)c3ccccc3)c12 (as salt: hydrochloride) [Example 49]
3. NCCc1ccc2c(S(=O)(=O)c3ccccc3)c[nH]c2c1 (as salt: hydrochloride) [Example 109]
4. O=S(=O)(c1ccccc1)c1c[nH]c2ccc(CCNCc3ccccc3)cc12 (as salt: hydrochloride) [Example 6]
5. CC(C)NCCc1cccc2c(S(=O)(=O)c3ccccc3)c[nH]c12 (as salt: hydrochloride) [Example 21]
6. CNCCc1cccc2[nH]cc(S(=O)(=O)c3ccccc3)c12 (as salt: hydrochloride) [Example 32]
7. CN(C)CCc1ccc2c(S(=O)(=O)c3ccccc3)c[nH]c2c1 (as salt: hydrochloride) [Example 86]

Result:
["205 to 208 °C", "135 °C", "178 °C", "215 to 220 °C", "291 to 293 °C (dec.)", "168 to 170 °C", "118 to 120 °C"]

Origin of the recorded values: patent US7645752B2
